- study.system: Tyrosine kinase (EGFR) (Homo sapiens, UniProt P00533)
- Construct: made in house
- Sequence (P00533 25-1210): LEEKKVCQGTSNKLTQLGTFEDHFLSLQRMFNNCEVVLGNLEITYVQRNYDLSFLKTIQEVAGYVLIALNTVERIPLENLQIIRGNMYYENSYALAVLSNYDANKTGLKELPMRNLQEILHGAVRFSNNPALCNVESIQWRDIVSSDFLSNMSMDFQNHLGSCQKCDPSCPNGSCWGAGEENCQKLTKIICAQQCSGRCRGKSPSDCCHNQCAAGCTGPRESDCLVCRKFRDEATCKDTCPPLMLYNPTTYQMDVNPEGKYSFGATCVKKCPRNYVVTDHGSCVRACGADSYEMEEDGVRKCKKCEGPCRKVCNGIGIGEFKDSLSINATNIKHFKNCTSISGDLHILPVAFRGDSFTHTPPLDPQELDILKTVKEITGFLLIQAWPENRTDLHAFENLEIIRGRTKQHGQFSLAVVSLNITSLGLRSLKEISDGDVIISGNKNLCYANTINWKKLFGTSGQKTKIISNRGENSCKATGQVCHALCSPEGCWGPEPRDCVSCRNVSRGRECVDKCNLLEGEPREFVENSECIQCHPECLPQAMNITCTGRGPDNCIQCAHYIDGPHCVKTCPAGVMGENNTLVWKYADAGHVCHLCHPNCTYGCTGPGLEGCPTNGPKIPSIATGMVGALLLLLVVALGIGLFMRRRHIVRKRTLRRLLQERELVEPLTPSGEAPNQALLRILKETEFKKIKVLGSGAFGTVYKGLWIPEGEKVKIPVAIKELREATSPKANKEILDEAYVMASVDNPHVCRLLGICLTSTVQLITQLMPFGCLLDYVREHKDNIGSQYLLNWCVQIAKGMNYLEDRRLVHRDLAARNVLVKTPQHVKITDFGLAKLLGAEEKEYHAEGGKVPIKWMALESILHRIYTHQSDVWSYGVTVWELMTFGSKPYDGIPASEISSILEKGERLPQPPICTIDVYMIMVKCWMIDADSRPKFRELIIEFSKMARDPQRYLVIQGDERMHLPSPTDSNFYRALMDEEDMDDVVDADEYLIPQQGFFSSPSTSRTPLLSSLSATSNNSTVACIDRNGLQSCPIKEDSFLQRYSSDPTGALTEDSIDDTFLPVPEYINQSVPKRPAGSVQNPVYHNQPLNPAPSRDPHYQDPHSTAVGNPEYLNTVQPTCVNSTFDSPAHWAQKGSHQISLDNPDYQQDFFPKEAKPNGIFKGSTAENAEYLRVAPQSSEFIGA
- test.name: EGFR tyrosine kinase inhibition by Enzyme-Linked Immunosorbent assay
- Type: biochemical
- cond: compound at a concentration of 100 μM; ATP 5 μM; substrate poly(Glu,Tyr)4:1
outcome.measure: EGFR inhibition rate (%)

[[record]]
structure = "COCCOc1cc2ncnc(OCc3cc(-c4ccccc4)no3)c2cc1OCCOC"
value = 27.7

[[record]]
structure = "c1ccc(-c2cc(COc3ncnc4ccccc34)on2)cc1"
value = 18.0

[[record]]
structure = "COc1cc2ncnc(OCc3cc(-c4ccccc4Cl)no3)c2cc1OC"
value = 1.2

[[record]]
structure = "COCCOc1cc2ncnc(OCc3cc(-c4ccc(OC)cc4)no3)c2cc1OCCOC"
value = 38.2


---

- study.system: Tyrosine kinase (EGFR) (Homo sapiens)
- Construct: made in house
- test.name: EGFR tyrosine kinase inhibition by Enzyme-Linked Immunosorbent assay
- Type: biochemical
- cond: compound at a concentration of 100 μM; ATP 5 μM; substrate poly(Glu,Tyr)4:1
outcome.measure: EGFR inhibition rate (%)

[[record]]
structure = "Clc1ccc(-c2cc(COc3ncnc4ccccc34)on2)c(Cl)c1"
outcome_measure = "EGFR inhibition rate (%)"
value = 22.7

[[record]]
structure = "COCCOc1cc2ncnc(OCc3cc(-c4ccc(C)cc4)no3)c2cc1OCCOC"
outcome_measure = "EGFR inhibition rate (%)"
value = 20.4

[[record]]
structure = "COc1cc2ncnc(OCc3cc(-c4ccccc4)no3)c2cc1OC"
outcome_measure = "EGFR inhibition rate (%)"
value = 30.7

[[record]]
structure = "COc1cc2ncnc(OCc3cc(-c4ccc(Cl)cc4)no3)c2cc1OC"
outcome_measure = "EGFR inhibition rate (%)"
value = 14.5

[[record]]
structure = "Clc1ccc(-c2cc(COc3ncnc4ccccc34)on2)cc1"
outcome_measure = "EGFR inhibition rate (%)"
value = 16.7


---

- study.system: Tyrosine kinase (EGFR) (Homo sapiens, UniProt P00533)
- Construct: made in house
- test.name: EGFR tyrosine kinase inhibition by Enzyme-Linked Immunosorbent assay
- Type: biochemical
- cond: compound at a concentration of 100 μM; ATP 5 μM; substrate poly(Glu,Tyr)4:1
outcome.measure: EGFR inhibition rate (%)

[[record]]
structure = "Brc1ccc(-c2cc(COc3ncnc4ccccc34)on2)cc1"
value = 15.7

[[record]]
structure = "COCCOc1cc2ncnc(OCc3cc(-c4ccccc4Cl)no3)c2cc1OCCOC"
value = 11.8

[[record]]
structure = "Clc1ccccc1-c1cc(COc2ncnc3ccccc23)on1"
value = 25.8

[[record]]
structure = "COc1cc2ncnc(OCc3cc(-c4ccc(Br)cc4)no3)c2cc1OC"
value = 30.9

[[record]]
structure = "COCCOc1cc2ncnc(OCc3cc(-c4ccc(Cl)cc4Cl)no3)c2cc1OCCOC"
value = 7.8

[[record]]
structure = "COCCOc1cc2ncnc(OCc3cc(-c4ccc(Br)cc4)no3)c2cc1OCCOC"
value = 6.4

[[record]]
structure = "COc1ccc(-c2cc(COc3ncnc4ccccc34)on2)cc1"
value = 7.3

[[record]]
structure = "COc1cc2ncnc(OCc3cc(-c4ccc(Cl)cc4Cl)no3)c2cc1OC"
value = 29.8

[[record]]
structure = "COc1ccc(-c2cc(COc3ncnc4cc(OC)c(OC)cc34)on2)cc1"
value = 47.0

